Tested on: SB.mhdgc-1
test.protocol: AC50 for growth inhibition (viability) (log10 M); higher = less potent
test.context: SB.mhdgc-1 (hereditary c.1380delA CDH1 gastric cancer)
metric.name: AC50 for growth inhibition (log10 M)
Answer with the value's number alone.

Query block: Could you share which AC50 for growth inhibition (log10 M) value was measured for `Cn1c2ccccc2c2c3c(c4c5ccccc5n(CCC#N)c4c21)CNC3=O` ?
Result block: -5.08

Query block: Could you share which AC50 for growth inhibition (log10 M) value was measured for `O=C(O)c1cccnc1` ?
Result block: -5.18

Query block: Could you share which AC50 for growth inhibition (log10 M) value was measured for `CN1C(=O)\C(=C/C(=C1/NC2=C(F)C=C(I)C=C2)C(=O)NOCCO)C` ?
Result block: -4.78

Query block: Could you share which AC50 for growth inhibition (log10 M) value was measured for `Cc1cc(CN2CCN(c3c(Br)cnc4[nH]c(-c5ccc(N6CCN(C)CC6)cc5)nc34)CC2)no1` ?
Result block: -4.63

Query block: Could you share which AC50 for growth inhibition (log10 M) value was measured for Cc1ccc(C(C)(O)c2nc3ccccc3s2)c(C)c1 (stereo not given) ?
Result block: -5.38

----------
Tested on: SB.msgc-1
test.protocol: AC50 for growth inhibition (viability) (log10 M); higher = less potent
test.context: SB.msgc-1 (sporadic gastric cancer)
Field: label. Allowed values: t (AC50 for growth inhibition (log10 M) < -5) or f (AC50 for growth inhibition (log10 M) >= -5).

Query block: Does this molecule meet the criterion AC50 for growth inhibition (log10 M) < -5? `C/C=C1\NC(=O)[C@H]2CSSCC/C=C\[C@H](CC(=O)N[C@H](C(C)C)C(=O)N2)OC(=O)[C@H](C(C)C)NC1=O`
Result block: t

Query block: Does this molecule meet the criterion AC50 for growth inhibition (log10 M) < -5? Clc1ccc(C(c2ccc(Cl)cc2)[n+]2ccn(CC(OCc3ccc(Cl)cc3Cl)c3ccc(Cl)cc3Cl)c2)cc1 (centres undefined) [Calmidazolium chloride]
Result block: f

Query block: Does this molecule meet the criterion AC50 for growth inhibition (log10 M) < -5? `CCNC(=O)c1cc2c(-c3cc(OCCN4CCCC4)c(Cl)cc3Cl)nc(N)nc2s1`
Result block: t

Query block: Does this molecule meet the criterion AC50 for growth inhibition (log10 M) < -5? COc1cc(C)c(Sc2cnc(NC(=O)c3ccc(CNC(C)C(C)C)cc3)s2)cc1C(=O)N1CCN(C(C)=O)CC1 (centres undefined)
Result block: f

Query block: Does this molecule meet the criterion AC50 for growth inhibition (log10 M) < -5? `Nc1n[nH]c2nnc(-c3c(-c4ccccc4)nn4ccccc34)cc12`
Result block: t

Query block: Does this molecule meet the criterion AC50 for growth inhibition (log10 M) < -5? `CN(C)c1ccc2nc3ccc(N(C)C)cc3[s+]c2c1`
Result block: t

Query block: Does this molecule meet the criterion AC50 for growth inhibition (log10 M) < -5? `S=C1N\C=N/C2=C1[NH]C=N2`
Result block: t

Query block: Does this molecule meet the criterion AC50 for growth inhibition (log10 M) < -5? `COc1ccc(C(=O)c2c(C)n(CCN3CCOCC3)c3cc(I)ccc23)cc1`
Result block: f

Query block: Does this molecule meet the criterion AC50 for growth inhibition (log10 M) < -5? CC1=CC=C(C=C1)N(C\C2=N\CCN2)C3=CC=CC(=C3)O [Phentolamine mesilate]
Result block: f

Query block: Does this molecule meet the criterion AC50 for growth inhibition (log10 M) < -5? `CC[C@H](NC(=O)[C@H](C)NC)C(=O)N1C[C@@H](O)C[C@H]1Cc1c(-c2[nH]c3cc(F)ccc3c2C[C@@H]2C[C@H](O)CN2C(=O)[C@H](CC)NC(=O)[C@H](C)NC)[nH]c2cc(F)ccc12`
Result block: t

Query block: Does this molecule meet the criterion AC50 for growth inhibition (log10 M) < -5? `COc1ncc(-c2ccc3nccc(-c4ccnnc4)c3c2)cc1N[S+](=O)([O-])c1ccc(F)cc1F`
Result block: t

----------
Test system: SB.msgc-1
test.protocol: area under the dose-response curve of % viability (trapezoidal, 11 doses) (% viability x log10 concentration); higher = less cytotoxic
test.context: SB.msgc-1 (sporadic gastric cancer)
Structures can show the parent of a compound that is named as a salt.
metric.name: area under the dose-response curve
Answer with the value's number alone.

Query block: Could you share which area under the dose-response curve value was measured for Nc1ncnc2c1nc(Cl)n2[C@@H]1O[C@H](CO)[C@@H](O)[C@H]1O [8-Cl-Ado] (top concentration 46.0829 µM) ?
Result block: 503

Query block: Could you share which area under the dose-response curve value was measured for Cc1ccccc1C(C(=O)NC1CCCCC1)N(C(=O)Cn1ccnc1C)c1cccc(F)c1 (centres undefined) [AGI-5198] (top concentration 46.0829 µM) ?
Result block: 508

Query block: Could you share which area under the dose-response curve value was measured for OC[C@H]1O[C@@H](OCCc2ccc(O)cc2)[C@H](O)[C@@H](O)[C@@H]1O [Salidroside] (top concentration 46.0829 µM) ?
Result block: 516

Query block: Could you share which area under the dose-response curve value was measured for Cc1nc(NC(=O)N2CCC[C@H]2C(N)=O)sc1-c1csc(C(C)(C)C)n1 [A-66] (top concentration 46.0829 µM) ?
Result block: 352

Query block: Could you share which area under the dose-response curve value was measured for COc1cnc(N[S+](=O)([O-])c2ccc(N)cc2)nc1 [Sulfameter] (top concentration 46.0829 µM) ?
Result block: 512

Query block: Could you share which area under the dose-response curve value was measured for CC(=O)Oc1ccccc1C(=O)O [Aspirin] (top concentration 46.0829 µM) ?
Result block: 287

Query block: Could you share which area under the dose-response curve value was measured for O=C(O)c1cc(/N=N/c2ccc([S+](=O)([O-])Nc3ccccn3)cc2)ccc1O [Sulfasalazine] (top concentration 46.0829 µM) ?
Result block: 510

Query block: Could you share which area under the dose-response curve value was measured for NCC1CCC(C(=O)O)CC1 (centres undefined) [Tranexamic acid] (top concentration 46.0829 µM) ?
Result block: 517

Query block: Could you share which area under the dose-response curve value was measured for CN[C@@H]1C[C@H]2O[C@@](C)([C@@H]1OC)n1c3ccccc3c3c4c(c5c6ccccc6n2c5c31)C(=O)N[C@H]4O [7-Hydroxystaurosporine] (top concentration 46.0829 µM) ?
Result block: 344

Query block: Could you share which area under the dose-response curve value was measured for Cc1ccc([S+](=O)([O-])Nc2cc(Cl)ccc2C(=O)Nc2nc(-c3ccccc3)cs2)cc1 (top concentration 46.0829 µM) ?
Result block: 468

Query block: Could you share which area under the dose-response curve value was measured for CN1CCc2c(n(Cc3ccc(C(=O)NO)cc3)c3ccccc23)C1 [Compound 7] (top concentration 46.0829 µM) ?
Result block: 508

Query block: Could you share which area under the dose-response curve value was measured for CC(C)N(CCNC(=O)CN1CCCC1=O)C(C)C [Pramiracetam hydrochloride] (top concentration 46.0829 µM) ?
Result block: 559

Query block: Could you share which area under the dose-response curve value was measured for COC1=CC=C2[N](CCCN(C)C)C=C(C2=C1)C/3=C(/C(=O)NC3=O)C4=C[NH]C5=C4C=CC=C5 [G?-6983] (top concentration 46.0829 µM) ?
Result block: 496

Query block: Could you share which area under the dose-response curve value was measured for Cc1cn([C@@H]2O[C@H](CO)[C@@H](O)[C@@H]2F)c(=O)[nH]c1=O [Clevudine] (top concentration 46.0829 µM) ?
Result block: 531

Query block: Could you share which area under the dose-response curve value was measured for C[C@]12Cc3cn[nH]c3C[C@@H]1CC[C@@H]1[C@@H]2CC[C@@]2(C)[C@H]1CC[C@]2(C)O [Stanozolol] (top concentration 46.0829 µM) ?
Result block: 510

Query block: Could you share which area under the dose-response curve value was measured for CC1=CC/2=C(C=C1C)N(C[C@@H](O)[C@@H](O)[C@@H](O)CO)C/3=N/C(=O)NC(=O)C3=N2 [Riboflavin] (top concentration 46.0829 µM) ?
Result block: 525

Query block: Could you share which area under the dose-response curve value was measured for O=C(Nc1cc(Cl)cc2c1[nH]c1cnccc12)c1cccnc1 [PS-1145] (top concentration 46.0829 µM) ?
Result block: 508

Query block: Could you share which area under the dose-response curve value was measured for CC1(C)OC2CC3C4CC(F)C/5=C/C(=O)/C=C\C5(C)C4C(O)CC3(C)[C@@]2(O1)C(=O)CO (some centres undefined) [Flunisolide] (top concentration 46.0829 µM) ?
Result block: 573

Query block: Could you share which area under the dose-response curve value was measured for CN1[C@@H]2CC[C@H]1CC(OC(=O)c1c[nH]c3ccccc13)C2 (some centres undefined) [Tropisetron] (top concentration 46.0829 µM) ?
Result block: 536

Query block: Could you share which area under the dose-response curve value was measured for Nc1nccc(-c2ccc3noc(-c4ccc(Cl)cc4)c3c2)n1 [Pim 1 inhibitor 2] (top concentration 46.0829 µM) ?
Result block: 468

Query block: Could you share which area under the dose-response curve value was measured for NC/1=N/[C@]2(COC[C@H]2CS1)C3=CC(=CC=C3F)NC(=O)C4=NC=C(F)C=C4 (top concentration 46.0829 µM) ?
Result block: 430

Query block: Could you share which area under the dose-response curve value was measured for Cc1cc(CN2CCN(c3c(Br)cnc4[nH]c(-c5ccc(N6CCN(C)CC6)cc5)nc34)CC2)no1 (top concentration 46.0829 µM) ?
Result block: 517

Query block: Could you share which area under the dose-response curve value was measured for CCN1CCN(CC1)CC(=O)NC2=CC=C(C3=C2C4=C(S3)C=CC=C4)C5=C6O\C(=C/C(=O)C6=CC=C5)N7CCOCC7 (top concentration 46.0829 µM) ?
Result block: 352

Query block: Could you share which area under the dose-response curve value was measured for COc1cc(F)c(F)c(Nc2ccc(I)cc2F)c1N[S+](=O)([O-])C1(C[C@H](O)CO)CC1 [RDEA-119] (top concentration 46.0829 µM) ?
Result block: 484
